System: HEK293T cells
test_details: in vitro
Type: cell-based
protocol_conditions: human, 72 h, 100 µmol·L−1
Returns the class for an entry based on its HEK293T cells survival rate. Class ranges: bin A = under 70%, bin B = from 70% up to 90%, bin C = 90% and over

COc1ccccc1OCCNC(=O)c1ccc(Nc2ccnc3cc(C(F)(F)F)ccc23)cc1: bin B
COc1ccccc1OCCNC(=O)c1ccc(Nc2ccnc3ccc(Br)cc23)cc1: bin B
O=C(c1ccc(Nc2ccnc3cc(C(F)(F)F)ccc23)cc1)N1CCN(c2cccc(C(F)(F)F)c2)CC1: bin A
COc1ccccc1OCCNC(=O)c1ccc(Nc2ccnc3ccc(Cl)cc23)cc1: bin C
O=C(c1ccc(Nc2ccnc3cc(C(F)(F)F)ccc23)cc1)N1CCN(c2ccc(Cl)cc2)CC1: bin A
CCN(CC)CCCNC(=O)c1ccc(Nc2ccnc3cc(C(F)(F)F)ccc23)cc1: bin B
O=C(NCc1ccccc1)c1ccc(Nc2ccnc3cc(C(F)(F)F)ccc23)cc1: bin B
COc1ccccc1OCCNC(=O)c1ccc(Nc2ccnc3cc(OC(F)(F)F)ccc23)cc1: bin B
O=C(NCCO)c1ccc(Nc2ccnc3cc(C(F)(F)F)ccc23)cc1: bin C
CCCNC(=O)c1ccc(Nc2ccnc3cc(C(F)(F)F)ccc23)cc1: bin B
O=C(NCCCN1CCOCC1)c1ccc(Nc2ccnc3cc(C(F)(F)F)ccc23)cc1: bin C
CCNC(=O)c1ccc(Nc2ccnc3cc(C(F)(F)F)ccc23)cc1: bin C
O=C(c1ccc(Nc2ccnc3cc(C(F)(F)F)ccc23)cc1)N1CCOCC1: bin B
CC(C)NC(=O)c1ccc(Nc2ccnc3cc(C(F)(F)F)ccc23)cc1: bin A
O=C(NC1CCCCC1)c1ccc(Nc2ccnc3cc(C(F)(F)F)ccc23)cc1: bin B
CCOc1ccc(N2CCN(C(=O)c3ccc(Nc4ccnc5cc(C(F)(F)F)ccc45)cc3)CC2)cc1: bin B

----------
Test system: HEK293T cells
test_details: in vitro
Format: cell-based
protocol_conditions: human, 72 h, 50 µmol·L−1
measured_parameter: HEK293T cells survival rate

O=C(NC1CCC(O)CC1)c1ccc(Nc2ccnc3cc(C(F)(F)F)ccc23)cc1 (centres unmarked) [Compound G10]: 99.09±8.41%
COc1ccccc1OCCNC(=O)c1ccc(Nc2ccnc3cc(C)ccc23)cc1 [Compound G21]: 110.67±8.55%
CCNC(=O)c1ccc(Nc2ccnc3cc(C(F)(F)F)ccc23)cc1 [Compound G01]: 88.18±3.27%
COc1ccccc1OCCNC(=O)c1ccc(Nc2ccnc3ccc(Br)cc23)cc1 [Compound G24]: 69.53±3.05%
O=C(NC1CCCCC1)c1ccc(Nc2ccnc3cc(C(F)(F)F)ccc23)cc1 [Compound G09]: 101.55±2.23%
O=C(c1ccc(Nc2ccnc3cc(C(F)(F)F)ccc23)cc1)N1CCOCC1 [Compound G12]: 80.68±3.36%
CCCNC(=O)c1ccc(Nc2ccnc3cc(C(F)(F)F)ccc23)cc1 [Compound G03]: 84.12±2.84%
O=C(c1ccc(Nc2ccnc3cc(C(F)(F)F)ccc23)cc1)N1CCN(c2ccc(Cl)cc2)CC1 [Compound G17]: 52.36±1.02%

----------
Tested on: HEK293T cells
test_details: in vitro
Format: cell-based
protocol_conditions: human, 72 h, 25 µmol·L−1
Quick rule for you: HEK293T cells survival rate at 90% or higher means TRUE, lower means FALSE.

COc1ccccc1OCCNC(=O)c1ccc(Nc2ccnc3cc(C)ccc23)cc1: TRUE
O=C(NCCCO)c1ccc(Nc2ccnc3cc(C(F)(F)F)ccc23)cc1: TRUE
O=C(c1ccc(Nc2ccnc3cc(C(F)(F)F)ccc23)cc1)N1CCN(c2cccc(C(F)(F)F)c2)CC1: FALSE
CC(C)NC(=O)c1ccc(Nc2ccnc3cc(C(F)(F)F)ccc23)cc1: FALSE
O=C(NCc1ccccc1)c1ccc(Nc2ccnc3cc(C(F)(F)F)ccc23)cc1: TRUE
CCN(CC)CCCNC(=O)c1ccc(Nc2ccnc3cc(C(F)(F)F)ccc23)cc1: FALSE
